# experiment description: Luminescence Cell-Based Dose Response HTS to Identify Activators of Luciferase Translation or Activity in H4 […] Cells. [Related pubchem assays: 1829 (Project Summary), 1814 (Primary HTS)]
# Type: functional
The source made the active and inactive calls.
// reported EC50 for each item listed

Worked examples follow.
compound	EC50
CCOC(=O)c1cc(-c2ccccc2)nn1Cc1cc(CC)no1	7.3 µM (active)
CCCN1CCC(=O)N([C@H](CSc2ccc(C)cc2)c2ccccc2)CC1	5.58 µM (active)
Cc1cc2c([nH]c3ccccc32)c2c1OC(C)(C)C=C2	27.7 µM (active)

Task item: EC50 lookup needed for CC1=Nc2cc(C(=O)NCC3CCCO3)ccc2Sc2ccc(Br)cc21 (stereo unspecified) , thanks.
Reply: > 120 µM (not active)

Task item: EC50 lookup needed for O=C(Cn1ncc(N2CCOCC2)c(Br)c1=O)c1ccc(Cl)cc1 , thanks.
Reply: 7.93 µM (active)

Task item: EC50 lookup needed for Cc1ccc(NC(=O)CCOc2ccccc2)cc1 , thanks.
Reply: 92.6 µM (active)

* * *

# target: Leucine aminopeptidase (Plasmodium falciparum 3D7)
# Sequence (Q8IL11 whole entry): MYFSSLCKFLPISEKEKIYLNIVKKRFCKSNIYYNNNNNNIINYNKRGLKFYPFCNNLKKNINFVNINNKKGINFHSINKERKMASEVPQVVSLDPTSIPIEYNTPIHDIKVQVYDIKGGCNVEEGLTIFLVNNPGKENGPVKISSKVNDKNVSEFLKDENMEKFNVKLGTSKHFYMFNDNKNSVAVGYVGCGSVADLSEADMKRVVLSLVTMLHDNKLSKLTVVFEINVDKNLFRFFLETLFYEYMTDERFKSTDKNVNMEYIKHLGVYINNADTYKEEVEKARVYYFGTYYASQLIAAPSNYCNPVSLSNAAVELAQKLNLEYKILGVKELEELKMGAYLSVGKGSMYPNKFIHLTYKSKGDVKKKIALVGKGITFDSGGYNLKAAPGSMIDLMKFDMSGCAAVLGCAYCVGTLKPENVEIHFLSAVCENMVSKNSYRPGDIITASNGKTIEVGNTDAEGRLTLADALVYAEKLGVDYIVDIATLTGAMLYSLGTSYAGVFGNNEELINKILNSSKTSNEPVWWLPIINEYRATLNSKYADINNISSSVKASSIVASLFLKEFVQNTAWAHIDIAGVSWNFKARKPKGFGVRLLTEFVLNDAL
# experiment description: P. falciparum M17LAP inhibitors, primary screen, biochemical, fluorogenic H-Leu-NHMec substrate, 1536-well (AID 1619)
# Assay type: functional
Activity calls are given as the source filed them.
readout kind: IC50

entry smiles	endpoint result
C=CCSc1nnc(NC(=O)c2nc(SCC)ncc2Cl)s1	10.8 µM (active)

Task item: IC50 lookup needed for O=C(O)CCc1nnc(SCC(=O)Nc2cccc(C(F)(F)F)c2)nc1O , thanks.
Reply: 6.64 µM (active)

Task item: IC50 lookup needed for Nc1nonc1-c1nc2ccccc2n1CC(=O)N/N=C/c1ccc(-c2ccccc2C(=O)O)o1 , thanks.
Reply: 73.8 µM (active)

Task item: IC50 lookup needed for C/C(CC(=O)Nc1cc(C)ccn1)=N\NC(=O)COc1cccc(C)c1 , thanks.
Reply: 90.2 µM (active)

* * *

# target: UniProt:Q9QUQ5
# Sequence (Q9QUQ5 whole entry): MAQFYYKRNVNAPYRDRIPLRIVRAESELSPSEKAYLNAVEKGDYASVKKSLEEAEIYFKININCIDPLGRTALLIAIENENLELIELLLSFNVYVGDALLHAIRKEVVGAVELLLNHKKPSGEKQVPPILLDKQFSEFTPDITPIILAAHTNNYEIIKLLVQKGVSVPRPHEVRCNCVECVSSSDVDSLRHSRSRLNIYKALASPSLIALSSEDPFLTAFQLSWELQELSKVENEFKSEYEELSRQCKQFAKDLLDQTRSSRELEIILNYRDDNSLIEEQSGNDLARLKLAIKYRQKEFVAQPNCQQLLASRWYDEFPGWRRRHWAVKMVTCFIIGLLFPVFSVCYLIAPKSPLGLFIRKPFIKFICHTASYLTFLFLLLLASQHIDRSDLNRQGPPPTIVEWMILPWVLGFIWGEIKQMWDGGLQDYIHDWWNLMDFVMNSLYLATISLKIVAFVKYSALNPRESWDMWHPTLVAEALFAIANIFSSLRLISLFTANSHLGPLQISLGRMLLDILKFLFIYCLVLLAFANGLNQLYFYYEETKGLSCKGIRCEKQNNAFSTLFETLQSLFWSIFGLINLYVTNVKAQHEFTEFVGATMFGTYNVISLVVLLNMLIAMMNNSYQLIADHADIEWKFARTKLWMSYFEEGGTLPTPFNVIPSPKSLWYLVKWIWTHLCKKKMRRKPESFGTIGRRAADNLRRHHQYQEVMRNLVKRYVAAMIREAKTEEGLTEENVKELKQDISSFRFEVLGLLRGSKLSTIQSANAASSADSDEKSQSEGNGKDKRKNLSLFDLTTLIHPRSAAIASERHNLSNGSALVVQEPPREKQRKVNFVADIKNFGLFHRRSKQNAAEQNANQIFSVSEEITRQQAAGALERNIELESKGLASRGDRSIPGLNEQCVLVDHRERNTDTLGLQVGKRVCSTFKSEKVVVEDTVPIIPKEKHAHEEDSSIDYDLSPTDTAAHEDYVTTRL
# experiment description: calcium entry via TRPC4 opening agents – cell-based, HEK293 TRPC4/mu-opioid, Fluo-4 calcium, dose response (AID 434937)
# Type: functional
The source made the active and inactive calls.
readout kind: EC50

compound	endpoint result
CN(CCc1nc2cc(Cl)ccc2[nH]1)Cc1nc(CC2CC2)no1	5.31 µM (active)

Task item: EC50 lookup needed for CCc1cccc(CC)c1N=C(S)NCC(c1cccnc1)N(C)C (stereo not given) , thanks.
Reply: 0.168 µM (active)

Task item: EC50 lookup needed for Fc1ccc(-c2nn(-c3ccccc3)cc2CNCc2ccccc2)cc1 , thanks.
Reply: 5.31 µM (active)

Task item: EC50 lookup needed for O=S(=O)(c1ccc(Cl)cc1)N1CCN2CCCC2C1 (stereo not given) , thanks.
Reply: 4.73 µM (active)

Task item: EC50 lookup needed for Cc1cc(NC(=O)CN2CCc3ccccc3C2)nc2c1c(=O)oc1ccccc12 , thanks.
Reply: 1.19 µM (active)
